test target: TMPRSS2 (Homo sapiens)
Sequence (O15393 106-492 limits assumed): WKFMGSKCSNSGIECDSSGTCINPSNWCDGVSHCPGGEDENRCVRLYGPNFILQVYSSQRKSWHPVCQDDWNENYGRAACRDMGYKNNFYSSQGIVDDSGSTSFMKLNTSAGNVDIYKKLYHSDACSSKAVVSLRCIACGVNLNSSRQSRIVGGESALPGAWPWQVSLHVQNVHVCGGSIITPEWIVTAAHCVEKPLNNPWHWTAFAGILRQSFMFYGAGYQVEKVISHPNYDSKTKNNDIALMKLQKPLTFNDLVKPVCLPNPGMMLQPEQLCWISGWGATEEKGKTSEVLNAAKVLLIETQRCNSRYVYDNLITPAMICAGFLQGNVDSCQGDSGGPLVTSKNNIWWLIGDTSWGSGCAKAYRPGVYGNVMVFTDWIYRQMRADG
assay explanation: Fluorogenic kinetic enzyme inhibitor assay, TMPRSS2
Format: biochemical
Parameters: purchased Cusabio Technology CSB-YP023924HU
conditions: read-out: TMPRSS2 IC50
recorded endpoint: log10(IC50) (log10 of the value in nM)
Please keep in mind that the values are log10 of IC50 expressed in nM.

Some entries whose results are on file:
CCC(C)[C@H](NC(C)=O)C(=O)N[C@@H](CCSC)C(=O)N[C@@H](Cc1ccccc1)C(=O)N[C@H](CCCNC(=N)N)C(=O)c1nc2ccccc2s1 (some centres unmarked); 0.75
N=C(N)NCCC[C@H](NC(=O)[C@H](Cc1ccccc1)NC(=O)[C@H](CCC(N)=O)NC(=O)OCc1ccccc1)C(=O)c1nc2ccccc2s1; -0.38
N=C(N)NCCC[C@H](NC(=O)[C@@H](NC(=O)OCc1ccccc1)c1cccs1)C(=O)c1nc2ccccc2s1; -0.68
N=C(N)NCCC[C@H](NC(=O)[C@H](Cc1ccccc1)NC(=O)[C@H](CCC(N)=O)N1CCCCC1)C(=O)c1nc2ccccc2s1; 0.92
CCC(C)[C@H](NC(C)=O)C(=O)N[C@@H](CCC(N)=O)C(=O)N[C@@H](Cc1c[nH]c2ccccc12)C(=O)N[C@@H](CCCNC(=N)N)C(=O)c1nc2ccccc2s1 (some centres unmarked); 0.34

Fill in log10(IC50) for record `CC(=O)N[C@@H](CCCCNC(=N)N)C(=O)N[C@@H](Cc1cncn1COCc1ccccc1)C(=O)N[C@@H](CCC(C)C)C(=O)N[C@@H](CCCNC(=N)N)C(=O)c1nc2ccccc2s1`
0.97

Fill in log10(IC50) for record `CC(=O)NCC(=O)N[C@@H](CCC(N)=O)C(=O)N[C@@H](Cc1ccccc1)C(=O)N[C@H](CCCNC(=N)N)C(=O)c1nc2ccccc2s1`
0.81

Fill in log10(IC50) for record `N=C(N)NCCC[C@H](NC(=O)[C@H](CCc1ccc(O)cc1)NC(=O)OCC1c2ccccc2-c2ccccc21)C(=O)c1nc2ccccc2s1`
-0.78

====

test target: HGFA (Homo sapiens)
Construct: purchased R&D Systems 1514-SE-010
Sequence (Q04756 408-655 limits assumed): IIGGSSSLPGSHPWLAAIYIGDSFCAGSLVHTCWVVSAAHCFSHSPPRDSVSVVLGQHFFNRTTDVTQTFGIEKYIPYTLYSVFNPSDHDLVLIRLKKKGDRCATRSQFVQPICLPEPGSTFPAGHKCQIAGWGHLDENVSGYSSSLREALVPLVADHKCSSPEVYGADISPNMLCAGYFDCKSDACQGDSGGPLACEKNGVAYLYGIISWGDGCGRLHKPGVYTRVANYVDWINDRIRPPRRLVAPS
Sequence (Q04756 373-407 partner limits assumed): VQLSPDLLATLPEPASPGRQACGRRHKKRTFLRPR
assay explanation: Fluorogenic kinetic enzyme inhibitor assay, HGFA
Assay type: biochemical
Reported IC50 values for a set of molecules
Supply the numeric figure in nM, leaving out any unit text.

Some entries whose results are on file:
CSCC[C@H](NC(C)=O)C(=O)N[C@@H](CCC(N)=O)C(=O)N[C@@H](Cc1ccccc1)C(=O)N[C@@H](CCCNC(=N)N)C(=O)c1nc2ccccc2s1 [MM3130]; 36.4
CC(=O)NCC(=O)N[C@@H](CCC(N)=O)C(=O)N[C@@H](Cc1ccccc1)C(=O)N[C@@H](CCCNC(=N)N)C(=O)c1nc2ccccc2s1 [MM3122]; 32.5
CC(=O)N[C@@H](Cc1ccccc1)C(=O)N[C@@H](CC(C)C)C(=O)N[C@@H](Cc1ccccc1)C(=O)N[C@@H](CCCNC(=N)N)C(=O)c1nc2ccccc2s1 [ZFH7063]; 228

As a next step, examine the molecule that follows.
Fill in IC50 for record CC(=O)N[C@H]1Cc2ccc(cc2)OCCCC[C@@H](C(=O)N[C@H](CCCNC(=N)N)C(=O)c2nc3ccccc3s2)NC(=O)[C@H](Cc2ccccc2)NC1=O [VD4111A]
3280

====

test target: Factor Xa (Homo sapiens)
Construct: TMPRSS2; Matriptase; Hepsin; HGFA; Thrombin; Factor Xa
Sequence (P00742 235-488 limits assumed): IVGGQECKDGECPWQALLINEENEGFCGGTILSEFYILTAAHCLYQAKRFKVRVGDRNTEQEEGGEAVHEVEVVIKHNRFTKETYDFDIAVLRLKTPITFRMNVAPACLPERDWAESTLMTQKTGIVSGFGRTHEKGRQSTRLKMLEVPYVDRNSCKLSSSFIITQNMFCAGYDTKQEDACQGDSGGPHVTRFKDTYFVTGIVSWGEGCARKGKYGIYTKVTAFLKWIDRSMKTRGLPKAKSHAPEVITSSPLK
Sequence (P00742 41-179 partner limits assumed): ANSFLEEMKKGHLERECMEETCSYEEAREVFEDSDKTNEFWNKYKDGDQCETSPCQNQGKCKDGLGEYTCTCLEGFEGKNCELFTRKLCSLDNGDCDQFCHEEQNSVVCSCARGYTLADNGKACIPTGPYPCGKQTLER
assay explanation: Fluorogenic assay, Factor Xa
Type: biochemical
conditions: read-out: Factor Xa IC50
recorded endpoint: IC50 (nM)
Supply the numeric figure in nM, leaving out any unit text.

Some entries whose results are on file:
CCC(C)[C@H](NC(C)=O)C(=O)N[C@@H](CCC(N)=O)C(=O)N[C@@H](CO)C(=O)N[C@@H](CCCNC(=N)N)C(=O)c1nc2ccccc2s1 (some centres unmarked); 1730
CC(=O)N[C@H](Cc1c[nH]c2ccccc12)C(=O)N[C@@H](Cc1ccccc1)C(=O)N[C@@H](CCCNC(=N)N)C(=O)c1nc2ccc(C(=O)O)cc2s1; 30.5

Fill in IC50 for record CCC(C)[C@H](NC(C)=O)C(=O)N[C@@H](CCC(N)=O)C(=O)N[C@@H](Cc1ccccc1)C(=O)N[C@@H](CCCNC(=N)N)C(=O)c1nc2ccccc2s1 (some centres unmarked)
792

Fill in IC50 for record `CC(=O)N[C@@H](CCCCN)C(=O)N[C@@H](CCC(N)=O)C(=O)N[C@@H](CC(C)C)C(=O)N[C@@H](CCCNC(=N)N)C(=O)c1nc2ccccc2s1`
258

Fill in IC50 for record `N=C(N)NCCC[C@H](NC(=O)[C@H](Cc1ccccc1)NC(=O)[C@H](CCC(N)=O)NCc1ccccc1)C(=O)c1nc2ccccc2s1`
40

Fill in IC50 for record `CC(=O)N[C@H]1Cc2ccc(cc2)OC/C=C\CNC(=O)C[C@@H](C(=O)N[C@@H](CCCNC(=N)N)C(=O)c2nc3ccccc3s2)NC(=O)[C@H](CC(C)C)NC1=O`
3180
